Tested on: MS2 coat protein
Method: apparent Kd, MS2 coat protein; higher = weaker binding; RNA-MaP array
Protocol Conditions: ligand present: flavin mononucleotide; designed as: OFF switch for flavin mononucleotide

- Sequence String: "GGAAGUGUCUAGGAUAUCCUUCGAUCUAUGGCAGGAGAAGGAGAUACAUGAGGAUCACCCAUGUAGGUACGGGC"
  apparent Kd / nM: 6.75
- Sequence String: "ACACAUGAGGAUCACCCAUGUAGAUAUGGGCUCACUAUCACUAGAAGGACUUUGCUCUCUUGGAAGUAGGAUAUAGUACGCUGG"
  apparent Kd / nM: 134
- Sequence String: "UCAAGCGAAGGAUAUACAUGAGGAUCACCCAUGUUGGCUAGAAUGAAAGACGGAUUAUGUAGAAGGUCGUGUGC"
  apparent Kd / nM: 17.6
- Sequence String: "CGGGCGAAGCCUUUCACAUGAGGAUCACCCAUGUCUAAUACGAAGGAUAUCCUCGCCGGAGCUAAGGAGAAGGUCGACAUAGUU"
  apparent Kd / nM: 19.2
- Sequence String: "AAGCGCAAAGGAUAUAGCCGAUCCAACAUGAGGAUCACCCAUGUGACUUCCGACAUCAAGCUAGAAGGUUGAUGCA"
  apparent Kd / nM: 41
- Sequence String: "UCUGCGUCAGUCAGGAUAUGUUGCCAAAUUAUGGCACAGAAGGGACAUGAGGAUCACCCAUGUAGCGUCUCCGU"
  apparent Kd / nM: 10.4
- Sequence String: "UCGCGCUAAGGAUAUACUAUAAGCCACAUGAGGAUCACCCAUGUUAUAUACAUGUCCUCGGUAGAAGGUAGCCGGA"
  apparent Kd / nM: 50.2
- Sequence String: "AUGAUCAUAGUAAGGAUAUCCGGACCAAUAGCAAAGGAGAAGGUACAUGAGGAUCACCCAUGUUUAUUAAUACU"
  apparent Kd / nM: 9.98
- Sequence String: "AUUAGCAUCCAAGGAUAUCAGUUGGCCCGCAGGUGAGAAGGUGGAUUCUGGGCGCCGCGUGGGACACAUGAGGAUCACCCAUGU"
  apparent Kd / nM: 26
- Sequence String: "AGACCCAGAGGAUAUAACACAUGUAACAUGAGGAUCACCCAUGUGUCUAGUAGACACUUGUUAGAAGGCAGGCAUG"
  apparent Kd / nM: 54.5
- Sequence String: "GAUCGCAUCGUGAGGAUAUGAAAUGCCACUCAAAUACAGAAGGCACAUGAGGAUCACCCAUGUCUAGACAAGAG"
  apparent Kd / nM: 64.9
- Sequence String: "CGAACGGGCCACACUACAUGAGGAUCACCCAUGUUCGAAGAUAGAAGGUGUAGCUGGCCUCGUUACAAGGAUAUAUCUUAUACC"
  apparent Kd / nM: 27.4
- Sequence String: "UAAGCACAUGAGGAUCACCCAUGUGAGGAUAUGAGUGUCGGUCGAGAAGAGCGUCCAAUCAGAAGGCACAGGAU"
  apparent Kd / nM: 11.6
- Sequence String: "UUUACAUGAGGAUCACCCAUGUUCCCUUGUGACACGUUUUUCAGAAGGACAGGCAUAAUUUGGAUGUAGGAUAUGAAUUAGUGC"
  apparent Kd / nM: 21.9
- Sequence String: "GACGAAUCGGCAGGAUAUCUAGAUGAGCCAGAAUGUAAUUGAGUUGACAUGAGGAUCACCCAUGUAGAGAAGGGCCCAUCCAUU"
  apparent Kd / nM: 20.7
